biological target: Mitogen-activated protein kinase kinase kinase kinase 1 (Homo sapiens, UniProt Q92918); assay: HPK1 Kinase Assay
Sequence (Q92918 whole entry): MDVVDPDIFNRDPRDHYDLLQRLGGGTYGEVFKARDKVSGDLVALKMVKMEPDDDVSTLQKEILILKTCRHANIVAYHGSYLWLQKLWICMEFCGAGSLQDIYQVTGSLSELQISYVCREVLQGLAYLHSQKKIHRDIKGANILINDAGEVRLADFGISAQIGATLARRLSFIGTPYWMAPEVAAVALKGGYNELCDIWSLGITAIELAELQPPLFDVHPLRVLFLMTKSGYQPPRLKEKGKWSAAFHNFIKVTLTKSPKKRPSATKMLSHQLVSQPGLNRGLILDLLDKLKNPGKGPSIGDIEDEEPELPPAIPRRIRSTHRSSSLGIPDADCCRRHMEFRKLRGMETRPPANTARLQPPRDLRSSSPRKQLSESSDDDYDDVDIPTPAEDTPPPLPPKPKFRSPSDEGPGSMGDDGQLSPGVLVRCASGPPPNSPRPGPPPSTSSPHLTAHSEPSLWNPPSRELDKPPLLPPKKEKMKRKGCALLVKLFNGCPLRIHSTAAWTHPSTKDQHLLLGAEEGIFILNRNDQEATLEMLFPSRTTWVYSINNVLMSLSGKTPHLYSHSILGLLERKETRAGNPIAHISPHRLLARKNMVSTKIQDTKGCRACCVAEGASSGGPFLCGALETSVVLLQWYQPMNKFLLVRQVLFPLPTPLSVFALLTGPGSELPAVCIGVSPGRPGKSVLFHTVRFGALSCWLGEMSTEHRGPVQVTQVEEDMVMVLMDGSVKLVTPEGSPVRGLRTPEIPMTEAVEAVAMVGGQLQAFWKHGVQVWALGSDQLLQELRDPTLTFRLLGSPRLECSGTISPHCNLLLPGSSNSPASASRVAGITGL

# Compound, IC50
records = [
    ("CC(C)Nc1c(F)c(Cl)c(-c2cn3cc(NC(=O)C4(F)CC4)nc3cn2)c2cn[nH]c12 [US20250197406, Example 52]", "< 100 nM"),
    ("CC(=O)Nc1cn2cc(-c3c(Cl)c(F)c(NC(C)C)c4[nH]ncc34)ncc2n1 [US20250197406, Example 43]", "< 100 nM"),
]
